Let's look at some compounds and their measured activity change, negative = cytotoxicity.
- test_protocol: cytotoxicity in HepG2 hepatoma cells – cell-based, CellTiter-Glo luminescence, dry powder, cytotoxicity control for LMP1 inhibitor project, dose response (AID 624365)
- measurement_context: HepG2 viability, CellTiter-Glo luminescence, 48 h; at 19.5 µM (top of the series)
Results filed as inconclusive are left out.
assay_endpoint: activity change, negative = cytotoxicity (%)

>>> print(df.to_string())
                                   compound  meas_value
0          Cc1cc(NC(=O)c2ccc3c(c2)OCCO3)no1        14.9
1  C[C@@H]1CN([C@@H](C)CO)C(=O)c2cccc(NC(=O)Nc3cccc4ccccc34)c2O[C@H]1CN(C)C(=O)Nc1ccc(C(F)(F)F)cc1       -1.58
2  COCCCNC(=O)C(C)Sc1nnc2c3cc(C)ccc3n(Cc3ccccc3F)c2n1 (stereo not given)       -14.5
3  Cc1ccnc(NC(=O)c2ccc(C(=O)c3ccccc3)cc2)c1       -6.85
4       O=c1[nH]c(Nc2nc3ccccc3o2)nc2c1CCCC2       -6.44

The measurements presented in this section are drawn from PubChem BioAssay AID624365.
